Data provenance is patent US8309721B2.

# Tested on: Her2 receptor expression at the surface of SKBr3 cells
# procedure-details: phenotypic SKBr3/HER2 cell test (Her2 surface expression by flow cytometry)
# Assay type: cell-based
# condition-info: 24 h incubation, inhibition of Her2 expression
pIC50: −log10 of the molar value.
recorded-metric: pIC50

| molecule | reported |
| --- | --- |
| NC(=O)c1ccc(-n2c3ccccc3c3c(-c4nc5cc(F)ccc5[nH]4)cccc32)cc1N[C@H]1CCCC[C@@H]1CO (single isomer, unassigned) | > 6.00 |

###

# measured-on: Hsp82 (Saccharomyces cerevisiae, UniProt P02829)
# Sequence (P02829 whole entry): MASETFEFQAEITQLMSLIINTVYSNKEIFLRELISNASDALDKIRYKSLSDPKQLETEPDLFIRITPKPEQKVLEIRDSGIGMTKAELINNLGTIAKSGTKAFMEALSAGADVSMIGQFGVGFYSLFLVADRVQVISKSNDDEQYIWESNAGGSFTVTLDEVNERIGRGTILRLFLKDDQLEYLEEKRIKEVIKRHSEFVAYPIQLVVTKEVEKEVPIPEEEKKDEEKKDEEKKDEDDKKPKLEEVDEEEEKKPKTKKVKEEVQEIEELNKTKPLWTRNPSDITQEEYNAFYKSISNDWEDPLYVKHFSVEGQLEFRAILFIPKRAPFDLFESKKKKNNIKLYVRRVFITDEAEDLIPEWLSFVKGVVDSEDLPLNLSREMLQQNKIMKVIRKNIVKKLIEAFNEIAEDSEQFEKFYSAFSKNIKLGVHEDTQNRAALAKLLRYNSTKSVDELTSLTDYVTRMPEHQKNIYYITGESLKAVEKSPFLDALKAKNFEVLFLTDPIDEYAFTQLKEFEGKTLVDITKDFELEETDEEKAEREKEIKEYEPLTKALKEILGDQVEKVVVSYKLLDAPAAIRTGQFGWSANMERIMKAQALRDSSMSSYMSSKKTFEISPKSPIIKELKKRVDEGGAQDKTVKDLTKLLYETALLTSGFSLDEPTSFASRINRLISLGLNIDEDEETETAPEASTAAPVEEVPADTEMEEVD
# procedure-details: Hsp82/ATPase test (malachite green or PK/LDH coupled method)
# Format: biochemical
# condition-info: 1 μM Hsp82, 250 μM ATP, 37° C.; read-out: Hsp82 ATPase IC50
Here the recorded IC50 is given for each entry.
recorded-metric: IC50

| compound | reported |
| --- | --- |
| NC(=O)c1ccc(-n2c3ccccc3c3c(-c4cnc5ccccc5c4)cccc32)cc1NCC[N+]1([O-])CCCC1 [Example 45] | < 1 µM |
| NC(=O)c1ccc(-n2c3ccccc3c3c(-c4nc5ccc(F)cc5[nH]4)cccc32)cc1NCCOCCO [Example 7] | < 1 µM |
| NC(=O)c1ccc(-n2c3ccccc3c3c(-c4nc5ccc(F)cc5[nH]4)cccc32)cc1NC1CCCCC1 [Example 6] | 1 to 10 µM |
| CC(O)CCNc1cc(-n2c3ccccc3c3c(-c4cnc5ccccc5c4)cccc32)ccc1C(N)=O (centres unmarked) [Example 32] | < 1 µM |
| CN1CCC(O)(CCNc2cc(-n3c4ccccc4c4c(-c5cnc6ccccc6c5)cccc43)ccc2C(N)=O)CC1 [Example 65] | < 1 µM |
